- assay_name: TLR3 IRF3 reporter activation blockers – cell-based, poly I:C stimulus, luciferase, 10K MLSCN set, primary screen (AID 602277)
- condition_info: HEK293-TLR3 RL24 IRF3 luciferase reporter, at 10 µM, hits give high values
readout: inhibition (%)
Give just the numeric value; % need not be written.

Example compounds with recorded inhibition:
[[record]]
compound = "CCCS(=O)(=O)N1CCC(C(=O)NCCN2CCCC2)CC1"
readout = "inhibition"
result_units = "%"
assay_result = 19.2

[[record]]
compound = "N#Cc1c2n(c(=O)[nH]c1=O)CCCCC2"
readout = "inhibition"
result_units = "%"
assay_result = 0.231

[[record]]
compound = "CCCCCn1c(CN2CCN(C(=O)OCC)CC2)nc2c1c(=O)[nH]c(=O)n2C"
readout = "inhibition"
result_units = "%"
assay_result = 19.9

[[record]]
compound = "CCc1nc2sc(C)c(C)c2c(=O)n1CCO"
readout = "inhibition"
result_units = "%"
assay_result = 32

[[record]]
compound = "COc1cccc(NC(=O)COC(=O)c2cccnc2)c1"
readout = "inhibition"
result_units = "%"
assay_result = 19.2


Suppose we examine the compound `COc1ccc(OCC(=O)N2CCN(C(=O)Cc3ccccc3)CC2)cc1` ; what inhibition value has been reported? -7.66

Reported inhibition, compound COc1ccccc1CNC(=O)C1CCCN(S(=O)(=O)c2cnc[nH]2)C1 (stereo not given) : ____ 0.0501

Any idea what inhibition was measured for `COc1ccc(C(=O)Cn2nnc(-c3cccs3)n2)cc1` ? -30.5

Which measured inhibition value corresponds to `CC(C)N(Cc1nc(-c2ccc(Cl)cc2)no1)C(=O)CN(C)S(=O)(=O)c1ccc(Cl)cc1` ? 25.9

The measurements presented in this section are drawn from PubChem BioAssay.
